Target: Platelet-activating factor receptor (Oryctolagus cuniculus)
Assay: In vitro inhibition of PAF-induced aggregation of rabbit washed platelets.
EXPERIMENTAL_ENDPOINT: pIC50
The read-out pIC50 is expressed as -log10 of concentration in moles per litre.

Examples from the recorded data:
CCOC(=O)C1=C(c2ccc(-n3c(C)nc4cnccc43)cc2)N=C(C)C(C(=O)OC)C1c1ccccc1Cl (stereo not drawn): 8.80
CCOC(=O)C1=C(c2ccc(-n3c(C)nc4cnccc43)cc2)N=C(C)C(C(=O)Nc2ccccn2)C1c1cccc2c1OCO2 (stereo not drawn): 8.49

// query Item CCOC(=O)C1=C(c2ccc(-n3c(C)nc4cnccc43)cc2)N=C(C)C(C(=O)Nc2ccccn2)C1c1ccccc1OC(F)(F)F (stereo not drawn) has what recorded pIC50?
// result 8.64

// query For CCOC(=O)C1=C(c2ccc(-n3c(C)nnc3C)cc2)N=C(C)C(C(=O)Nc2ccccn2)C1c1ccccc1Cl (stereo not drawn) then?
// result 7.92

// query For CCOC(=O)C1=C(c2ccc(-n3c(C)nc4c(C)nc(C)cc43)cc2)N=C(C)C(C(=O)Nc2ccccn2)C1c1ccccc1Cl (stereo not drawn) then?
// result 8.23

###

Target: Platelet-activating factor receptor (Oryctolagus cuniculus)
Test: In vitro inhibition of PAF-induced aggregation of rabbit washed platelets.
Property: pIC50; scope: individual molecules
The read-out pIC50 is expressed as -log10 of concentration in moles per litre.

Examples from the recorded data:
CCCCc1nc2cnccc2n1-c1ccc(C2=C(C(=O)OCC)C(c3ccccc3Cl)C(C(=O)Nc3ccccn3)C(C)=N2)cc1 (stereo not drawn): 6.72
CCOC(=O)C1=C(c2ccc(-n3c(C)nc4cnccc43)cc2)N=C(C)C(C(=O)Nc2ccccn2)C1c1cccnc1Cl (stereo not drawn): 7.89

# next molecule below
// query Item CCOC(=O)C1=C(c2ccc(-n3cc(C)nc3C)cc2)N=C(C)C(C(=O)Nc2ccccn2)C1c1ccccc1Cl (stereo not drawn) has what recorded pIC50?
// result 7.89
